Assay: Luminescence Cell-Based Dose Response HTS to Identify Inhibitors of 5'UTR Stem-Loop Driven Prion Protein mRNA Translation in H4 Neuroglioblastoma Cells. [Related pubchem assays: 1827 (Project Summary), 1813 (Primary HTS)]
Assay type: functional
Active and inactive are the calls of the source. Rule as the data show it: actives have a measured EC50 and inactives only a lower limit.
Entries annotated with measured EC50
metric: EC50

[[record]]
compound = "COc1ccc(/N=C2/C(=N\\c3ccc(OC)cc3)N(c3ccc(OC)cc3)C(=S)N2c2ccc(N(C)C)cc2)cc1"
metric = "EC50"
recorded_value = "0.126 µM (active)"

[[record]]
compound = "Cc1onc(-c2c(Cl)cccc2Cl)c1C(=O)NN=C(N)COc1ccc(Cl)cc1"
metric = "EC50"
recorded_value = "12 µM (active)"

[[record]]
compound = "O=C(Nc1cccc(NC(=O)c2ccccc2Cl)c1)c1ccc([N+](=O)[O-])o1"
metric = "EC50"
recorded_value = "9.73 µM (active)"

[[record]]
compound = "O=C(N/N=C/c1ccc(Cl)cc1)c1[nH]nc2c1CCCC2"
metric = "EC50"
recorded_value = "> 120 µM (not active)"

[[record]]
compound = "CCC12C(=O)C(CC)(C(c3ccccc3)=C1c1ccccc1)[C@@H]1C(=O)N(c3ccc(C)cc3)C(=O)C12 (stereo partly specified)"
metric = "EC50"
recorded_value = "> 120 µM (not active)"

[[record]]
compound = "CC(C)c1ccc(-c2[nH]c(N3CCCC3)nc3nnc(N)c2-3)cc1"
metric = "EC50"
recorded_value = "> 120 µM (not active)"

